Test system: Escherichia coli
experimentalProtocol: Antibacterial activity against Escherichia coli TOP10 containing pS1A plasmid expressing quinolone resistance determinant QnrB4 by E-test
Assay type: functional
Here, each record is paired with measured MIC data.
// note: answer is a bare numeric in µg/mL

C[C@@H]1CN(c2c(F)c(N)c3c(=O)c(C(=O)O)cn(C4CC4)c3c2F)C[C@H](C)N1 [SPARFLOXACIN]    0.03
CCn1cc(C(=O)O)c(=O)c2ccc(C)nc21 [NALIDIXIC ACID]    2
CCn1cc(C(=O)O)c(=O)c2cc(F)c(N3CCNCC3)cc21 [NORFLOXACIN]    0.25

In the following, a different compound is considered.
Need MIC, item COc1c(N2C[C@@H]3CCCN[C@@H]3C2)c(F)cc2c(=O)c(C(=O)O)cn(C3CC3)c12 [MOXIFLOXACIN]
0.12
